B1: PBXIP1 (parent)
chain: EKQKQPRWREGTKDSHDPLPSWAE

- Variants of: B1
- method-summary: protein stability index of a GFP-peptide fusion (GPS, HEK-293T) (PSI 1-6); higher = more stable;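 further: lentivirally expressed fusions sorted by FACS into six bins by GFP to DsRed ratio, PSI derived from sequencing read proportions per bin multiplied by bin number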
- reported-conditions: c terminus: a fixed tail appended

[
  {
    "mutant-designation": "H16M",
    "protein stability index": 1.07
  },
  {
    "mutant-designation": "E24F",
    "protein stability index": 3.11
  },
  {
    "mutant-designation": "D17K",
    "protein stability index": 1.24
  },
  {
    "mutant-designation": "E24L",
    "protein stability index": 3.02
  },
  {
    "mutant-designation": "R9W",
    "protein stability index": 1.66
  },
  {
    "mutant-designation": "P18S",
    "protein stability index": 1.29
  },
  {
    "mutant-designation": "A23N",
    "protein stability index": 4.99
  },
  {
    "mutant-designation": "P6A",
    "protein stability index": 1.3
  },
  {
    "mutant-designation": "Q5M",
    "protein stability index": 1.55
  },
  {
    "mutant-designation": "P20I",
    "protein stability index": 2.48
  },
  {
    "mutant-designation": "K4N",
    "protein stability index": 2.02
  },
  {
    "mutant-designation": "E24K",
    "protein stability index": 2.89
  }
]
